Provide the recorded Kd for the entries that follow.
# system tested: RSV/B/B9320 pre-fusion F protein (respiratory syncytial virus RSV/B/B9320)
# measurement protocol: BLI
# value in nM; strip the unit string

Problem: GET /values?readout=Kd&item= Palivizumab (SYNAGIS) (antibody, V domains shown) VH: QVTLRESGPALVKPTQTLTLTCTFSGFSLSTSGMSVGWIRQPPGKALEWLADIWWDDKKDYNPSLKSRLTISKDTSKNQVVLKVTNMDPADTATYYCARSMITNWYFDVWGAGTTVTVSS VL: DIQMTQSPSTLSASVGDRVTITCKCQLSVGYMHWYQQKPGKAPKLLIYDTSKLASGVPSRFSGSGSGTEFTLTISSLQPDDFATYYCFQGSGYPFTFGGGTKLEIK
Result: 0.362

Problem: Find the recorded Kd belonging to MEDI8897 (antibody, V domains shown) VH: QVQLVQSGAEVKKPGSSVMVSCQASGGLLEDYIINWVRQAPGQGPEWMGGIIPVLGTVHYGPKFQGRVTITADESTDTAYMELSSLRSEDTAMYYCATETALVVSETYLPHYFDNWGQGTLVTVSS VL: DIQMTQSPSSLSAAVGDRVTITCQASQDIVNYLNWYQQKPGKAPKLLIYVASNLETGVPSRFSGSGSGTDFSLTISSLQPEDVATYYCQQYDNLPLTFGGGTKVEIK and report it.
Result: 0.66

Problem: For the binder fully human monoclonal antibody 4F1 wild type (antibody, V domains shown) VH: EVQLVQSGGGVVRPGRSLRLSCAASGFSFYSYSVHWVRQAPGKGLEWVADVVYDGNHQHYTESVRGRFSISRDTSTNTVYLQMGSLRPEDTALYYCTARSLVITLAGAGRDDYWGQGTRVTVSS VL: DIVMTQSPLSLSVTPGEPASISCKSSQSLLHSNGYTYLDWYLQKPGKSPQLLIFLGSSRASGVPARFSGSGSGTDFTLEISRVEAEDVGVYYCVQDLQTSLTFGGGTKVDIK , what Kd is on record?
Result: 0.0684

Problem: For 4F1En1 (VH-S75R) (antibody, V domains shown) VH: QVQLVESGGGVVQPGRSLRLSCAASGFSFYSYSVHWVRQAPGKGLEWVADVVYDGNHQHYTDSVKGRFTISRDTRKNTVYLQMGSLRAEDTALYYCTARSLVITLAGAGRDDYWGQGTTVTVSS VL: DIVMTQSPLSLPVTPGEPASISCRSSQSLLHSNGYTYLDWYLQKPGQSPQLLIFLGSSRASGVPDRFSGSGSGTDFTLKISRVEAEDVGVYYCVQDLQTSLTFGGGTKLEIKR , what is its reported Kd?
Result: 0.0018

Value source: patent US20240409620A1
